# Target or test system: factor Xa (Homo sapiens)
# Sequence (P00742 235-488 limits assumed): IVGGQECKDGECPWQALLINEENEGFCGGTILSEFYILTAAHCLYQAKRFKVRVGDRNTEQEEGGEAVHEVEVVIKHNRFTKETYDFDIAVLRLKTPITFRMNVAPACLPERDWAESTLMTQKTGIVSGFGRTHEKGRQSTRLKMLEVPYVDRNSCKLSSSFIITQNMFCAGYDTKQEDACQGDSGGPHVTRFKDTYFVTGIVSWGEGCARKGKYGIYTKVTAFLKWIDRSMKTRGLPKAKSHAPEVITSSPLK
# Sequence (P00742 41-179 limits assumed): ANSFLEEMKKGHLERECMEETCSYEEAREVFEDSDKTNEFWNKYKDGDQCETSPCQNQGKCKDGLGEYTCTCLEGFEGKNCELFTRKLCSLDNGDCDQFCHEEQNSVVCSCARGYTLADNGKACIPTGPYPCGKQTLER
# Test description: Factor Xa assay (Test 1a), chromogenic
# Type: biochemical
# Design: purchased Enzyme Research Laboratories, Inc; South Bend, Ind
# Condition details: in vitro factor Xa assay Test 1a; human factor Xa 0.5 nM, substrate S-2765 140 μM, 25° C.; Ki from IC50 corrected for substrate competition
Counter-ions that a name gives are not always drawn.
Endpoint: Ki (nM)
Give the value in nM but do not write nM after it.

Here are 4 compounds together with their reported answers.
N=C(N)c1ccc(CC(C(=O)NC(C(=O)NCC2CCN(C(=N)N)CC2)C2CCCCC2)c2cccc(F)c2)cc1 (single isomer, unassigned; less polar) [Example 161]; 8
N=C(N)NCCCC(NC(=O)C(NC(=O)C(Cc1ccc(C(=N)N)cc1)c1cccc(F)c1)C1CCCCC1)C(N)=O (single isomer, unassigned; less polar) [Example 131]; 5
N=C(N)NCCC[C@H](NC(=O)C(NC(=O)C(Cc1ccc(C(=N)N)cc1)C1CCCCC1)C1CCCCC1)C(=O)NCc1cccs1 (some centres unmarked) [Example 192, trifluoroacetic acid salt]; 44
N=C(N)c1ccc(CNC(=O)C(NC(=O)C(Cc2ccc(C(=N)N)cc2)C2CCCCC2)C2CCCCC2)cc1 (single isomer, unassigned; less polar) [Example 111]; 59

Next up:
*Q* Given the entry N=C(N)NCCCC(NC(=O)C(NC(=O)C(Cc1ccc(C(=N)N)cc1)C1CCCCC1)C1CCCCC1)C(N)=O (single isomer, unassigned) [Example 110] , report its measured Ki.
*A* 2
